All figures here come from ChEMBL document CHEMBL1131632.

measuredOn: Melatonin receptor (Gallus gallus) (UniProt P49288+P51050+P49285)
testConditions: Coturnix
measuredAttribute: pRA
Write the value as a bare number.

Form field pRA, entry COc1cccc2c1CC(CNC(C)=O)C2 (configuration not stated) : -2.12

# compound CC(=O)NCCc1cccc2c1C1=CC=COC1C=C2 (configuration not stated) ; its pRA = -0.18

Quick note, pRA for COc1ccc2c(c1)c(CCNC(C)=O)cn2C landed at -1.04

# pRA (compound: COc1ccc2[nH]c(Cc3ccccc3)c(CCNC(C)=O)c2c1 ) is -1.5

Value of pRA reported for the compound COc1cc2c(CCNC(C)=O)c[nH]c2cc1O is -1.42

====

measuredOn: Melatonin receptor (Gallus gallus) (UniProt P49288+P51050+P49285)
testConditions: Coturnix
Recorded measurements of pRA, one per entry
Write the value as a bare number.

>>> observedmeasurement("COc1cc2c(CCNC(C)=O)c(C)[nH]c2c(Cl)c1Cl")
0.4
>>> observedmeasurement("CCC(=O)NCCc1c(OC)ccc2ccccc12")
0
>>> observedmeasurement("CCC(=O)NCC1CCCc2c1c1ccccc1n2C (configuration not stated)")
-2.54
>>> observedmeasurement("CCC(=O)NC1CCCc2cccc(OC)c2C1 (configuration not stated)")
-1.76

response.value for CCOc1ccc2ccccc2c1CCNC(C)=O (field: pRA) = -0.72

So, COc1ccc2c(c1)CC(NC(C)=O)CC2 (configuration not stated) ? Its pRA was -2.33

Summary for this molecule, CCC(=O)NC1Cc2cccc3ccc(OC)c(c23)C1 (configuration not stated) : pRA is -1.12

====

measuredOn: Melatonin receptor (Gallus gallus) (UniProt P49288+P51050+P49285)
testConditions: Coturnix
# maps each entry to its pRA
// keep it numeric: no unit symbol after the value

>>> observedmeasurement("COc1ccc2cccc3c2c1CC(NC(C)=O)C3 (stereo unspecified)")
-1.71
>>> observedmeasurement("COc1ccccc1CCCNC(C)=O")
-3.38
>>> observedmeasurement("COc1ccc2[nH]cc3c2c1CC(NC(C)=O)C3 (stereo unspecified)")
-2.74
>>> observedmeasurement("COc1ccc(OC)c(CCNC(C)=O)c1")
-2.02
>>> observedmeasurement("CC(=O)NC1Cc2cccc3cccc(c23)C1")
-2.63

The value of pRA measured for the compound COc1ccc2occ(CCNC(C)=O)c2c1 turned out to be -0.97

pRA reading for CC(=O)NCCc1cccc2c1-c1ccoc1C(=O)C2 : -2.18

====

measuredOn: Melatonin receptor (Gallus gallus) (UniProt P49288+P51050+P49285)
testConditions: Coturnix
Please note: true applies when pRA is -2 or greater, and false applies otherwise.

The examples below pair each entry with its known result.
>>> classification("COc1ccc2[nH]c(Cl)c(CCNC(C)=O)c2c1")
"true"
>>> classification("CCC(=O)NC1CCc2ccccc2C1 (stereo unspecified)")
"false"
>>> classification("COc1ccc2ccc(OC)c3c2c1CC(NC(C)=O)C3")
"true"
>>> classification("COc1cccc2c1CCC(NC(C)=O)C2 (stereo unspecified)")
"false"
>>> classification("CCC(=O)NCCc1ccc(OC)c(OC)c1")
"false"

Does pRA meet or surpass -2 for CCC(=O)NCCn1c(I)cc2cc(OC)ccc21 ?
false

Is reported pRA greater than or equal to -2 here: CCC(=O)NCCn1ccc2cc(OC)ccc21
false

Hello, I need to know if CCC(=O)NCCn1c(-c2ccccc2)cc2ccc(OC)cc21 has measured pRA not below -2. Thanks!
true

Has CCC(=O)NCCc1c(OC)ccc2ccc(OC)cc12 a recorded pRA greater than or equal to -2?
true

# check: pRA of CCC(=O)NCCCc1cccc(OC)c1 is greater than or equal to -2
true

Tell me whether pRA is at least -2 here: COc1ccc2ccn(CCNC(C)=O)c2c1
true

Determine whether this compound has pRA no lower than -2: CC(=O)NCCc1c[nH]c2ccc(Cl)cc12
true

Check this compound for pRA at or above -2: CC(=O)Nc1ccc2[nH]c3ccccc3c2c1
false

Would you say COc1ccc2[nH]c(C(C)C)c(CCNC(C)=O)c2c1 shows pRA at minimum -2?
true

Given the entry CCC(=O)NCCCc1ccccc1OC , answer whether its pRA meets or surpasses -2.
false

Has CCC(=O)NCCc1cccc2ccc(OC)cc12 a recorded pRA greater than or equal to -2?
true
